- Test system: 5′-AMP-activated protein kinase (AMPK)
- method-summary: AMPK activation (AMPKα Thr172 phosphorylation immunoassay) in MCF7 cells
- Type: cell-based, human
- condition-context: 50 μM compound, MCF7 cells, 24 hours
# AMPK Activation (phosphorylated AMPKα Thr172) >= 5 gives 1 (yes), anything below gives 0 (no)

CCCNC(=N)NC(=N)NCCc1ccccc1.Cl | 1 (yes)
CCN(CC)C(=N)NC(=N)N(CC)CC.Cl | 0 (no)
CNC(=N)NC(=N)N(C)C.Cl | 1 (yes)
CN(C)C(=N)NC(=N)NC(C)(C)C.Cl | 0 (no)
CCCN(CCC)C(=N)NC(=N)N(CC)CC.Cl | 1 (yes)
Cl.N=C(NC(=N)Nc1cccc(Cl)c1)Nc1cccc(Cl)c1 | 0 (no)
CN(C)C(=N)NC(=N)NCc1cccnc1.Cl | 0 (no)

---

- Test system: 5′-AMP-activated protein kinase (AMPK)
- method-summary: AMPK activation (AMPKα Thr172 phosphorylation immunoassay) in MCF7 cells
- Format: cell-based, human
- condition-context: Homo sapiens, 24 h; 50 μM vs. 0 (cells without compound), MCF7 cells
recorded-endpoint: fold induction at 50 µM

Cl.N=C(NCCc1ccccc1)NC(=N)NCCc1ccccc1 [Example 16, Hydrochloride] | 0.7
CCCCCCNC(=N)NC(=N)NCc1ccccc1.Cl [Example 4, Hydrochloride] | 6.2
CCCN(CCC)C(=N)NC(=N)N(CC)CC.Cl [Example 37, Hydrochloride] | 6.3
CCN(CC)C(=N)NC(=N)N(C)C1CCCCC1.Cl [Example 36, Hydrochloride] | 0.8
CCN(CC)C(=N)NC(=N)N(CC)CC.Cl [Example 35, Hydrochloride] | 0.7
CN(C)C(=N)NC(=N)NCc1cccnc1.Cl [Example 27, Hydrochloride] | 0.9
CN(C)C(=N)NC(=N)NCc1ccco1.Cl [Example 26, Hydrochloride] | 1.7
CCCNC(=N)NC(=N)NCCc1ccccc1.Cl [Example 13, Hydrochloride] | 6.8
Cl.N=C(NC(=N)Nc1cccc(Cl)c1)Nc1cccc(Cl)c1 [Example 6, Hydrochloride] | 0.7
CCCN(CCC)C(=N)NC(=N)Nc1cccc2cnccc12.Cl [Example 33, Hydrochloride] | 1.7
CN(C)C(=N)NC(=N)NCc1ccccc1.Cl [Example 28, Hydrochloride] | 1.2
CCC(C)NC(=N)NC(=N)N(C)C.Cl (centres unmarked) [Example 19, Hydrochloride] | 0.7
CCCCCCNC(=N)NC(=N)NCC1CCCCC1.Cl [Example 3, Hydrochloride] | 1.9
CN(Cc1ccccc1)C(=N)NC(=N)N(C)Cc1ccccc1.Cl [Example 40, Hydrochloride] | 1.7
CN(C)C(=N)NC(=N)NCC1CC1.Cl [Example 24, Hydrochloride] | 1
CCCN(CCC)C(=N)NC(=N)N(C)CCc1ccccc1.Cl [Example 38, Hydrochloride] | 6.8
COC(=O)CCNC(=N)NC(=N)N(C)C.Cl [Example 22, Hydrochloride] | 0.6

Origin of the recorded values: patent US10376480B2
